- Tested on: CEM cells HIV-1 protection, formazan growth assay
- protocolNotes: NCI AIDS Antiviral Assay;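 active = compounds giving half or more protection of infected cells from virus-caused growth loss, again on retest; inactive = the rest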
Where a SMILES comes first, the peptide text is derived from it. The star is where a group is joined. ONb = O=[N+]([O-])c1ccc(CO*)cc1; Boc = CC(C)(C)OC(=O)*
Classes to choose from: 1 = active, 0 = inactive

Query: // return assay outcome for CC(C)=CCC12Cc3ccc(O)cc3C(C(C)CN1)C2C (configuration not stated)
Reply: 0

Query: // return assay outcome for `Cc1cc(=O)[nH]c2c3c(ccc12)OC(C)(C)C=C3`
Reply: 0

Query: // return assay outcome for `N#Cc1c(-c2cccc3ccccc23)c2c([nH]c1=S)CCCC2`
Reply: 1

Query: // return assay outcome for `Cc1c2ccc(Cl)cc2nc2ccc(OCCCCCCNC(=O)[C@@H](N)CCCN=C(N)N)cc12`
Reply: 0

Query: // return assay outcome for O=[N+]([O-])c1nccn1CC(O)CF (configuration not stated)
Reply: 0

Query: // return assay outcome for `C/C(=N\OC(=O)Nc1cccc(Cl)c1)c1ccccc1`
Reply: 0

Query: // return assay outcome for `N#C/C(=C\c1c[nH]c2ccccc12)C(=O)c1ccc(O)c(O)c1`
Reply: 0

Query: // return assay outcome for CC(C)CC(NC(=O)OC(C)(C)C)C(=O)NC(CCC(=O)OCc1ccc([N+](=O)[O-])cc1)C(=O)OCc1ccc([N+](=O)[O-])cc1 (stereo not drawn) (Boc-Leu-Glu(ONb)-ONb; configuration not given here)
Reply: 0

Query: // return assay outcome for `O=c1cc(N=Nc2ccc(Cl)cc2)[nH]c(=O)[nH]1`
Reply: 0

Query: // return assay outcome for `Nc1nc2ncn(O)c2c(=O)[nH]1`
Reply: 0

Query: // return assay outcome for `CC(=O)NNc1nc(C)c(C(=O)NNC(=O)C(=O)Nc2ccccc2C#N)s1`
Reply: 0

Query: // return assay outcome for COC1C=CC(C(=O)[N+]2=Cc3[nH]c4ccccc4c3CC2)O1 (configuration not stated)
Reply: 0

Query: // return assay outcome for `CN(O)C(=O)CCCC(=O)NCC(C)(C)CNC(=O)CCCC(=O)N(C)O`
Reply: 0

Query: // return assay outcome for `CSCC(COC(C)=O)(CSC)c1ccncc1`
Reply: 0

Query: // return assay outcome for `O=[N+]([O-])c1cccc2nc3ccccc3c(NCCCNc3c4ccccc4nc4cccc([N+](=O)[O-])c34)c12`
Reply: 0

Query: // return assay outcome for `NC(N)=NS(=O)(=O)c1ccc(NNc2c3ccccc3nc3ccccc23)cc1`
Reply: 0

Query: // return assay outcome for `C#CCN1C(=O)c2ccccc2S1(=O)=O`
Reply: 0

Query: // return assay outcome for `COc1ccc(CCCNC(=O)Cc2cc(OC)c(OC)cc2CO)cc1OC`
Reply: 0

Query: // return assay outcome for `CSc1nc(N)c2c(n1)N(C)C=NS2(=O)=O`
Reply: 0

Query: // return assay outcome for `CCCn1c(=O)c2ccccc2[n+]2c(-c3ccc([N+](=O)[O-])cc3)csc12`
Reply: 0

Query: // return assay outcome for `CCOC(=O)c1nnsc1NC(=O)NN`
Reply: 0

Query: // return assay outcome for `O=C(NCCCNC(=O)c1ccccc1O)c1ccccc1O`
Reply: 0

---

- System: CEM cells HIV-1 protection, formazan growth assay
- protocolNotes: NCI AIDS Antiviral Assay;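 active means compounds giving half or more protection of infected cells from virus-caused growth loss, again on retest; inactive means the rest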
Where a SMILES comes first, the peptide text is derived from it. The star is where a group is joined. Cbz = O=C(OCc1ccccc1)*
Classes to choose from: 1.0 (active), 0.0 (inactive)

Query: // return assay outcome for O=C(C[C@H](NC(=O)OCc1ccccc1)C(=O)NC1Cc2ccccc2OC1=O)OCc1ccccc1 (some centres undefined)
Reply: 0.0

Query: // return assay outcome for `Cc1cnc2nc(N)nc(N)c2n1`
Reply: 0.0

Query: // return assay outcome for `Cc1cc(=O)c2c(ccc3c(=O)cc(C)[nH]c32)[nH]1`
Reply: 0.0

Query: // return assay outcome for `S=c1[nH]nc(COc2ccc(Cl)cc2)o1`
Reply: 0.0

Query: // return assay outcome for CC12CCCCC1=[N+]([O-])C(C)(C)N2O (centres undefined)
Reply: 0.0

Query: // return assay outcome for `C[C@@H]1S[C@H](c2c(F)cccc2F)n2c1nc1ccccc12`
Reply: 1.0

Query: // return assay outcome for `c1ccc(C2(c3ccccc3)OCCO2)cc1`
Reply: 0.0

Query: // return assay outcome for O=C(Nc1ccc(Cl)c(Cl)c1)C(=O)C(C1OC(=O)c2ccccc21)[N+](=O)[O-] (centres undefined)
Reply: 0.0

Query: // return assay outcome for `O=C(C=Nc1ccccc1C(=O)[O-])c1ccco1.O=C(C=Nc1ccccc1C(=O)[O-])c1ccco1.[Cu+2]`
Reply: 0.0

Query: // return assay outcome for CNC(=O)CC1NC(=O)c2csc(n2)-c2ccc(-c3nc(C4=NC(C(=O)N5CCCC5C(N)=O)CO4)cs3)nc2-c2csc(n2)-c2csc(n2)C(C(C)C)NC(=O)CNC(=O)c2csc(n2)C(C(C)C)NC(=O)c2nc1sc2C (centres undefined)
Reply: 0.0

Query: // return assay outcome for `COc1cc2c(c(O)c1OC)C(=O)[C@@H]1CCC(=O)N1C2`
Reply: 1.0

Query: // return assay outcome for O=C1/C(=C\c2cccc(Oc3ccccc3)c2)SC(c2ccccc2)N1c1cccc(Cl)c1 (centres undefined)
Reply: 0.0

Query: // return assay outcome for COC1CC(OC2C(C)OC(OC3C(C)OC(OC4C(C)OC(O[C@H]5CC[C@@]6(C)C(=CC[C@]7(O)[C@@H]6C[C@@H](OC(C)=O)[C@@]6(C)[C@]7(O)CC[C@@]6(O)C(C)=O)C5)CC4OC)CC3OC)CC2OC)OC(C)C1O (some centres undefined)
Reply: 0.0

Query: // return assay outcome for `CCCCCSCCCCCCCC(=O)O`
Reply: 0.0

Query: // return assay outcome for `[N-]=[N+]=C(C(=O)CN1CCCC1=O)S(=O)(=O)c1ccccc1`
Reply: 0.0

Query: // return assay outcome for COc1ccc(C2S/C(=C\c3cccc(O)c3)C(=O)N2NC(=O)Cc2ccccc2)cc1 (centres undefined)
Reply: 0.0

Query: // return assay outcome for NNC(=O)N/N=C1\C(=O)N(c2nccs2)C(=O)C(=O)C1c1nc2ccccc2s1 (centres undefined)
Reply: 0.0

Query: // return assay outcome for O=C(O)C(Cc1ccccc1)NC(=O)C1CCCN1C(=O)OCc1ccccc1 (stereo not drawn) (Cbz-Pro-Phe-OH; configuration not given here)
Reply: 0.0

Query: // return assay outcome for `COc1ccc(-c2cc(C(=O)Nc3ccc(C)c(C)c3)nc(NC#N)n2)cc1`
Reply: 0.0

Recorded values, source PubChem BioAssay AID179.
